The reported measurements were obtained from ChEMBL document CHEMBL1143824.

Tested on: Bacteroides eggerthii
Experiment: Antimicrobial activity against Bacteroides eggerthii assessed as percent resistant isolates
Type: functional
Returns true (1) if the recorded Activity is greater than or equal to 7%, and false (0) otherwise.

[[record]]
compound = "COC1(NC(=O)Cc2cccs2)C(=O)N2C(C(=O)O)=C(COC(N)=O)CS[C@@H]21 (single isomer, unassigned) [CEFOXITIN]"
assigned_label = "true (1)"

[[record]]
compound = "CCC[C@@H]1C[C@@H](C(=O)NC([C@H](C)Cl)[C@H]2O[C@H](SC)[C@H](O)[C@@H](O)[C@H]2O)N(C)C1 (single isomer, unassigned) [CLINDAMYCIN]"
assigned_label = "true (1)"

[[record]]
compound = "COc1c(N2C[C@@H]3CCCN[C@@H]3C2)c(F)cc2c(=O)c(C(=O)O)cn(C3CC3)c12 [MOXIFLOXACIN]"
assigned_label = "true (1)"

[[record]]
compound = "C[C@@H](O)[C@H]1C(=O)N2C(C(=O)O)=C(S[C@@H]3CN[C@H](C(=O)N(C)C)C3)[C@H](C)[C@H]12 [MEROPENEM]"
assigned_label = "false (0)"

[[record]]
compound = "C[C@@H](O)[C@H]1C(=O)N2C(C(=O)O)=C(SC3CNC(C(=O)Nc4cccc(C(=O)O)c4)C3)[C@H](C)[C@H]12 (single isomer, unassigned) [ERTAPENEM]"
assigned_label = "false (0)"

[[record]]
compound = "C[C@@H](O)[C@H]1C(=O)N2C(C(=O)O)=C(SCCNC=N)C[C@H]12 [IMIPENEM ANHYDROUS]"
assigned_label = "false (0)"

